# measurement-target: Acetylcholinesterase (Homo sapiens, UniProt P22303)
# Sequence (P22303 whole entry): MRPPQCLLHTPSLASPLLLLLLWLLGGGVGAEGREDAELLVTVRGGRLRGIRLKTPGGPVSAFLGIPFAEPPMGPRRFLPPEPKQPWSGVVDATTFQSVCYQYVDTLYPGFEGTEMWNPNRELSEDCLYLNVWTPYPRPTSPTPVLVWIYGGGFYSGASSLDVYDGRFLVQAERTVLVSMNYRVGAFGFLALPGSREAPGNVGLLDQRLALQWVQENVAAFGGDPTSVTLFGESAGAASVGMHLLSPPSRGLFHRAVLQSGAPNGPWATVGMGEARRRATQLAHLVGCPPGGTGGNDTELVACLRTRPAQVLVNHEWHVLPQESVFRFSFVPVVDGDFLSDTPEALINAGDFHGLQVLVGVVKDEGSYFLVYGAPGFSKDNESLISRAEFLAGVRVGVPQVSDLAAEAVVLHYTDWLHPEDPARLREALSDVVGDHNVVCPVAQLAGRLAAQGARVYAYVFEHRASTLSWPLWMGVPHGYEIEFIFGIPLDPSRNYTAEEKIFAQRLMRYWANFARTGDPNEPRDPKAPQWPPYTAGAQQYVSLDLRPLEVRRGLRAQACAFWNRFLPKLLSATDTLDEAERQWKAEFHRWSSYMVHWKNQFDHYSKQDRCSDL
Answer each item with its documented IC50.
Give the number; nM is assumed, so skip it.

stdin: Dear colleague, I am looking for the recorded IC50 of the following compound: Nc1c2c(nc3cccc(F)c13)C1CC(C2)C1
stdout: 28.8

stdin: Form field: reported IC50 of Nc1c2c(nc3ccc(O)cc13)CCCC2
stdout: 162

----------
// each record: one item and its log10 of IC50 for Acetylcholinesterase (Homo sapiens, UniProt P22303)
Recall that a logarithmic scale is used here: each number is log10 of IC50 in nM.

stdin: Reported log10 of IC50 for C=C1c2cccc(Cl)c2N=C2CCCCCN12 : what is it?
stdout: 3.18

stdin: Return reported log10 of IC50; argument: Nc1c2c(nc3ccc(Cl)cc13)OCCC2
stdout: 4.00

stdin: Which measured log10 of IC50 value corresponds to C=C1c2ccccc2N=C2CCCCCN12 ?
stdout: 3.57

stdin: Bench note: what log10 of IC50 did Nc1c2c(nc3cccc(F)c13)CCCC2 show?
stdout: 1.90

stdin: // lookup log10 of IC50 for Nc1c2c(nc3cnccc13)OCCC2
stdout: 4.62

stdin: // lookup log10 of IC50 for C=C1c2cc(Cl)ccc2N=C2CCCCCN12
stdout: 2.70

stdin: Could you tell me which log10 of IC50 is on file for C=C1c2ccc(Cl)cc2N=C2CCCCCN12 ?
stdout: 2.20

stdin: Item under review: CCC1=CC2Cc3nc4cc(Cl)ccc4c(N)c3C(C1)C2 (stereo unspecified) . Reported log10 of IC50?
stdout: -0.49

stdin: What value of log10 of IC50 has been recorded for this entry: C=C1c2c(Cl)cccc2N=C2CCCCCN12
stdout: 3.23
